# credit: PubChem BioAssay (NCI)

Tested on: A498 renal
procedure details: NCI tumour cell line growth inhibition, 48 h
Below: a set of entries, each annotated with reported TGI.
Respond numerically; units are µM and should not be typed.

CCCNNC(=O)c1ccc(CNC(=O)/C=C/c2ccccc2)cc1	0.36
C/C(=C\[C@H]1C[C@@H]([C@@H]2CC[C@]34C[C@]23C=C[C@@H]2[C@@]3(C)CC=C5C[C@@H](c6ccccc6)OC[C@]5(C)[C@@H]3C[C@@H](O)[C@]24C)C(=O)O1)CO	5.8
Cc1cccc2c(=O)c3c(sc12)c(NCCN)nc1ccccc13	6.92

TGI recorded for this molecule, COc1ccc(/C=C2\CCCC3=C2N=C2SC=NN2C3c2ccc(OC)c(OC)c2)cc1OC (configuration not stated) , is 40.8

The molecule identified as `CO[C@H]1C[C@H](O[C@H]2CC[C@]3(C=O)[C@H]4CC[C@]5(C)[C@@H](C6=CC(=O)OC6)CC[C@]5(O)[C@@H]4CC[C@]3(O)C2)O[C@H](C)[C@H]1O[C@@H]1O[C@H](CO[C@@H]2O[C@H](CO)[C@@H](O)[C@H](O)[C@H]2O)[C@@H](O)[C@H](O)[C@H]1O` registered its TGI at 0.533

Item: `O=C1/C(=C/c2cccc([N+](=O)[O-])c2)N=C(c2ccccc2)N1c1ccc2c(c1)Sc1cc(N3C(=O)/C(=C/c4cccc([N+](=O)[O-])c4)N=C3c3ccccc3)ccc1N2` | TGI: 55.1

Record O=[N+]([O-])c1ccc(C2N3CCCCC3[C@@H]3c4[nH]c5ccccc5c4CCN23)cc1 (some centres not stated) . Reported TGI: 36.5

TGI in this record for `O=C(Nc1ncc(Cc2ccc(Cl)cc2)s1)c1ccc2c(c1)OCCO2` : 0.0809

Record `COc1ccc2oc(-c3ccc(Cl)cc3)c(N3CCN(C)CC3)c2c1` , field TGI: 3.15
